- Study Target: CREBZF (Homo sapiens, UniProt Q9NS37)
- Construct: made in house
- Method: Direct-binding FRET assay
- Condition Summary: 4°C; N-terminal rhodamine design; mean or single; read-out: Kd
pKd: −log10 of the molar value. Where no end group is shown, it is not given here.
Value Kind: pKd

Some solved cases for reference:
[[record]]
primary_sequence = "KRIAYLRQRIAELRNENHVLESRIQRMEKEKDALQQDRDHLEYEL [ATF5-d1]"
result = 6.43

[[record]]
primary_sequence = "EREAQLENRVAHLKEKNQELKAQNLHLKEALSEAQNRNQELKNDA [XBP1-d1]"
result = "< 6.00"


Please look at the following sequence next.
Asked: Recorded pKd of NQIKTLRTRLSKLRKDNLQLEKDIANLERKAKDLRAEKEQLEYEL [ATF4-d1] , please.
Given back: > 6.70
